- Tested on: RARa:RXR (NR concentration 270 nM, RXRa partner concentration 90 nM)
- testMethodNotes: PBM binding z-score (relative to random genomic background probes); higher = stronger binding; sequences stand for … in GC…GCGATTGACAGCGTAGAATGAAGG

- entrySequence: "CCTATTAGTTGACCATAAGGGGAACCGAAGCTCG"
  assaySystem: "RARa:RXR (NR concentration 270 nM, RXRa partner concentration 90 nM)"
  PBM binding z-score: 0.248
- entrySequence: "CCTACTGGGCCAAAAAGGTCATCGATGCCGATAA"
  assaySystem: "RARa:RXR (NR concentration 270 nM, RXRa partner concentration 90 nM)"
  PBM binding z-score: 5.26
- entrySequence: "CGTCCAAGGTCAATGCTAGGTCAGTAAAAGCATT"
  assaySystem: "RARa:RXR (NR concentration 270 nM, RXRa partner concentration 90 nM)"
  PBM binding z-score: 6.12
- entrySequence: "TCTCGGAGGACACGAAAGGTCAGAGCACGACATC"
  assaySystem: "RARa:RXR (NR concentration 270 nM, RXRa partner concentration 90 nM)"
  PBM binding z-score: 4.89
- entrySequence: "GCTAGCAGGCCGTTTGGGTCACTCAATGACGGGC"
  assaySystem: "RARa:RXR (NR concentration 270 nM, RXRa partner concentration 90 nM)"
  PBM binding z-score: 0.575

The measurements presented in this section are drawn from the supplement of paper PMC6555819.
